Reference source for all entries: ChEMBL document CHEMBL5647694

test-target: N-lysine methyltransferase KMT5A (Homo sapiens)
Sequence (Q9NQR1 whole entry): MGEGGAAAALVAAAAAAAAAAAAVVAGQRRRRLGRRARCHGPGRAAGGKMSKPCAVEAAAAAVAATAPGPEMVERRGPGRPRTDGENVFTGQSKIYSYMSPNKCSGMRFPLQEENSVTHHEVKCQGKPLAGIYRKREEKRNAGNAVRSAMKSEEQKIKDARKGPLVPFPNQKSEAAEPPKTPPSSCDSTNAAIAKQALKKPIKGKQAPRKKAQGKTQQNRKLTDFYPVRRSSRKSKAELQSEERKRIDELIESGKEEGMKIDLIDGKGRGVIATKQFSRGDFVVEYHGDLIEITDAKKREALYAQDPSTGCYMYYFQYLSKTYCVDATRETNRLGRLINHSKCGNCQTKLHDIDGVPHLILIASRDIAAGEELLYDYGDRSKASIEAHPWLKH
measured-quantity: IC50

Entry `Cc1cc(C)c(CNC(=O)c2cc(Cl)c3c(c2C)O[C@@](C)([C@H]2CC[C@H](N(C)C)CC2)O3)c(=O)[nH]1` : reported IC50 = ?
100 µM

====

test-target: Histone-lysine N-methyltransferase NSD3 (Homo sapiens)
Sequence (Q9BZ95 whole entry): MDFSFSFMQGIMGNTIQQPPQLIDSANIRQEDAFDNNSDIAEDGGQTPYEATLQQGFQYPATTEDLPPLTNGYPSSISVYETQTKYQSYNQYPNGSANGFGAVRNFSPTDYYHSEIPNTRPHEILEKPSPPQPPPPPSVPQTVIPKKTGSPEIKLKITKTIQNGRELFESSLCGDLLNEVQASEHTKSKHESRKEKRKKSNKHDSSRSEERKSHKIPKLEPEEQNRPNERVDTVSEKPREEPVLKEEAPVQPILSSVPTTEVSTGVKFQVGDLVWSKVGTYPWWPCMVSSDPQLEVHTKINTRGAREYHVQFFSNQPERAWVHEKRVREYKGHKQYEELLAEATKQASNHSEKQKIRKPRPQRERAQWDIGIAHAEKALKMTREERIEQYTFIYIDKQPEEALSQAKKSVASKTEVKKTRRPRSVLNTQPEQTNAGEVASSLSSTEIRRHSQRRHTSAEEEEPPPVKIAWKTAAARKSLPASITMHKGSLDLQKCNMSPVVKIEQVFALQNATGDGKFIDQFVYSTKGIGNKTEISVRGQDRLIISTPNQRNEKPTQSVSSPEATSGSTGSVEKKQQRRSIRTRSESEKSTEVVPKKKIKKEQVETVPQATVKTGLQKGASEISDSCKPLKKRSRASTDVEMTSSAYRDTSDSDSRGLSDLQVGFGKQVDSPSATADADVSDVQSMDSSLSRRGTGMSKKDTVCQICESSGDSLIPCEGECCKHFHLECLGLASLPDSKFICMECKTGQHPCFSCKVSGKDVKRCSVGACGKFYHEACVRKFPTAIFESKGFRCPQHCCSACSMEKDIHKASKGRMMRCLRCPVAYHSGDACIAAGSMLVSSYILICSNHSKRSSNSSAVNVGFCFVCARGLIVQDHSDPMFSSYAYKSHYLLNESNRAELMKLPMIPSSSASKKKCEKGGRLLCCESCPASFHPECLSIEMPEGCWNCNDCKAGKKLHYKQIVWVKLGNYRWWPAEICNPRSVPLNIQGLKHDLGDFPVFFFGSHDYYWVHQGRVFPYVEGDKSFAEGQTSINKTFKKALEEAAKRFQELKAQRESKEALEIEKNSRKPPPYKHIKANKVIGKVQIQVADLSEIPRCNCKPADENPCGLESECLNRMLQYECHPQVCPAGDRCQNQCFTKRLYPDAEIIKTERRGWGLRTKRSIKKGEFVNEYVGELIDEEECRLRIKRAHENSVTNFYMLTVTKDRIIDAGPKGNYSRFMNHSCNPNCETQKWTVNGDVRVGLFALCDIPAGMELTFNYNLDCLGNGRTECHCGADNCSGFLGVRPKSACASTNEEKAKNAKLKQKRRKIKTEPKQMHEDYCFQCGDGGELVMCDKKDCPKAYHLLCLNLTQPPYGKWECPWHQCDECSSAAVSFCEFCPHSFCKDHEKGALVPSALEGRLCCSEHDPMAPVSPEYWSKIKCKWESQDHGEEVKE
measured-quantity: IC50

Entry Cc1cc(C)c(CNC(=O)c2cc(Cl)c3c(c2C)O[C@@](C)([C@H]2CC[C@H](N(C)C)CC2)O3)c(=O)[nH]1 [VALEMETOSTAT] : reported IC50 = ?
100 µM

====

test-target: Histone-lysine N-methyltransferase PRDM9 (Homo sapiens, UniProt Q9NQV7)
Sequence (Q9NQV7 whole entry): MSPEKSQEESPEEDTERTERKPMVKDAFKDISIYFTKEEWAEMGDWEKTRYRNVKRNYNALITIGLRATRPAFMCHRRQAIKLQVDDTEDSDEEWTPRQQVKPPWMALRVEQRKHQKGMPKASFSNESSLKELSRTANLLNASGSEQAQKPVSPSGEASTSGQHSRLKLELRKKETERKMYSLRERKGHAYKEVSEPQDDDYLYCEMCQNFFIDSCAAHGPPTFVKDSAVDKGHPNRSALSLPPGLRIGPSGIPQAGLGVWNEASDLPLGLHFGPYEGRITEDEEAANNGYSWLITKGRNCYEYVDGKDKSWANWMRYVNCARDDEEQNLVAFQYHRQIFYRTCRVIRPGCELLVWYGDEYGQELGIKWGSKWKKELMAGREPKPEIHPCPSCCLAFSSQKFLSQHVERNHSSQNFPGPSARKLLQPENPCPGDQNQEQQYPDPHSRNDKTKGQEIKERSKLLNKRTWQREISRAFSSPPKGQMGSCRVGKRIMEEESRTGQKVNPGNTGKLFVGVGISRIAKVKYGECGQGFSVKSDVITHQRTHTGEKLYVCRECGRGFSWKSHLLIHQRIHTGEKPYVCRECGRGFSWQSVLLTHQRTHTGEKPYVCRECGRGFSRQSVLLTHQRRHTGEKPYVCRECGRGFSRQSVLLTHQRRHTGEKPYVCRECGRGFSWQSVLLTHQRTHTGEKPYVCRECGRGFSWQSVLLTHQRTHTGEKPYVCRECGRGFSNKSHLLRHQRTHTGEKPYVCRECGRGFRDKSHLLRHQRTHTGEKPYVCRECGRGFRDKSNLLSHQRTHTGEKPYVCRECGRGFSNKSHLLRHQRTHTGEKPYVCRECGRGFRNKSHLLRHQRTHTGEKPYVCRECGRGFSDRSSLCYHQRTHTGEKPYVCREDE
measured-quantity: IC50 (µM)
Give bare numbers, in µM.

Entry `Cc1cc(C)c(CNC(=O)c2cc(Cl)c3c(c2C)O[C@@](C)([C@H]2CC[C@H](N(C)C)CC2)O3)c(=O)[nH]1` : reported IC50 = ?
100

====

test-target: Histone-lysine N-methyltransferase EHMT2 (Homo sapiens)
Sequence (Q96KQ7 whole entry): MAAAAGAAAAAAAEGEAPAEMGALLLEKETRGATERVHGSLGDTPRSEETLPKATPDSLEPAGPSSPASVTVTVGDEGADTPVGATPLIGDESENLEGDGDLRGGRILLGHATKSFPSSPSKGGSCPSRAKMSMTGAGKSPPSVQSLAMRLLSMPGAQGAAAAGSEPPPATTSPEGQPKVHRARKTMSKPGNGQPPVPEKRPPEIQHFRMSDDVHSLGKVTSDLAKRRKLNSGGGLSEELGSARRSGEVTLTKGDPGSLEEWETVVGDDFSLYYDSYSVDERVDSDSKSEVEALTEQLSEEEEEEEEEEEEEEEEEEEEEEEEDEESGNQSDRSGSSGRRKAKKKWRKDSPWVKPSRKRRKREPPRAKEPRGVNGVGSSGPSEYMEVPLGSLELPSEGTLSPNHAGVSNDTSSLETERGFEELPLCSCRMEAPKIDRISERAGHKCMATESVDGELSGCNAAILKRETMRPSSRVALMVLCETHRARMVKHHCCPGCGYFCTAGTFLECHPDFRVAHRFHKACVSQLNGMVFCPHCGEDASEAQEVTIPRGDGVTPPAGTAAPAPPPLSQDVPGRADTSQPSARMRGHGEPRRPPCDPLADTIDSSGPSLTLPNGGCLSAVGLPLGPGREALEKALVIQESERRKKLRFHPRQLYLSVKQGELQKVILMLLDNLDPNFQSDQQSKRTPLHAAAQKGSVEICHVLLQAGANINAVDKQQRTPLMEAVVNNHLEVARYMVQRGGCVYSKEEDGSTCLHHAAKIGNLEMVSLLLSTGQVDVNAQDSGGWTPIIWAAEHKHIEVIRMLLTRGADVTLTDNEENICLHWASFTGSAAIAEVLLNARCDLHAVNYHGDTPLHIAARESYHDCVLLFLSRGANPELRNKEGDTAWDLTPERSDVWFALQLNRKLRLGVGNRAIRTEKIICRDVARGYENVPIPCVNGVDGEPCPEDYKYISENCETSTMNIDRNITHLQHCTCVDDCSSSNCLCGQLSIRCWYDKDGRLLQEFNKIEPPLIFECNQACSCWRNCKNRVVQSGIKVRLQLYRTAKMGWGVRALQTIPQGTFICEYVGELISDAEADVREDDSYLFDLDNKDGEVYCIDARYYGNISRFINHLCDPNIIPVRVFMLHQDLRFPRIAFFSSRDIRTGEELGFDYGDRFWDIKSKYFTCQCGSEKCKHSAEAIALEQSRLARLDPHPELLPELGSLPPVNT
measured-quantity: IC50 (µM)
Answers are plain numbers, in µM.

Request: IC50, test system Histone-lysine N-methyltransferase EHMT2 (Homo sapiens), entry Cc1cc(C)c(CNC(=O)c2cc(Cl)c3c(c2C)O[C@@](C)([C@H]2CC[C@H](N(C)C)CC2)O3)c(=O)[nH]1 [VALEMETOSTAT]
100

====

test-target: Histone-lysine N-methyltransferase 2A (Homo sapiens, UniProt Q03164)
measured-quantity: pIC50
Give bare numbers, as −log10 of the molar value.

Entry Cc1cc(C)c(CNC(=O)c2cc(Cl)c3c(c2C)O[C@@](C)([C@H]2CC[C@H](N(C)C)CC2)O3)c(=O)[nH]1 [VALEMETOSTAT] : reported pIC50 = ?
4.00

====

test-target: UniProtKB Q8TEK3
Sequence (Q8TEK3 whole entry): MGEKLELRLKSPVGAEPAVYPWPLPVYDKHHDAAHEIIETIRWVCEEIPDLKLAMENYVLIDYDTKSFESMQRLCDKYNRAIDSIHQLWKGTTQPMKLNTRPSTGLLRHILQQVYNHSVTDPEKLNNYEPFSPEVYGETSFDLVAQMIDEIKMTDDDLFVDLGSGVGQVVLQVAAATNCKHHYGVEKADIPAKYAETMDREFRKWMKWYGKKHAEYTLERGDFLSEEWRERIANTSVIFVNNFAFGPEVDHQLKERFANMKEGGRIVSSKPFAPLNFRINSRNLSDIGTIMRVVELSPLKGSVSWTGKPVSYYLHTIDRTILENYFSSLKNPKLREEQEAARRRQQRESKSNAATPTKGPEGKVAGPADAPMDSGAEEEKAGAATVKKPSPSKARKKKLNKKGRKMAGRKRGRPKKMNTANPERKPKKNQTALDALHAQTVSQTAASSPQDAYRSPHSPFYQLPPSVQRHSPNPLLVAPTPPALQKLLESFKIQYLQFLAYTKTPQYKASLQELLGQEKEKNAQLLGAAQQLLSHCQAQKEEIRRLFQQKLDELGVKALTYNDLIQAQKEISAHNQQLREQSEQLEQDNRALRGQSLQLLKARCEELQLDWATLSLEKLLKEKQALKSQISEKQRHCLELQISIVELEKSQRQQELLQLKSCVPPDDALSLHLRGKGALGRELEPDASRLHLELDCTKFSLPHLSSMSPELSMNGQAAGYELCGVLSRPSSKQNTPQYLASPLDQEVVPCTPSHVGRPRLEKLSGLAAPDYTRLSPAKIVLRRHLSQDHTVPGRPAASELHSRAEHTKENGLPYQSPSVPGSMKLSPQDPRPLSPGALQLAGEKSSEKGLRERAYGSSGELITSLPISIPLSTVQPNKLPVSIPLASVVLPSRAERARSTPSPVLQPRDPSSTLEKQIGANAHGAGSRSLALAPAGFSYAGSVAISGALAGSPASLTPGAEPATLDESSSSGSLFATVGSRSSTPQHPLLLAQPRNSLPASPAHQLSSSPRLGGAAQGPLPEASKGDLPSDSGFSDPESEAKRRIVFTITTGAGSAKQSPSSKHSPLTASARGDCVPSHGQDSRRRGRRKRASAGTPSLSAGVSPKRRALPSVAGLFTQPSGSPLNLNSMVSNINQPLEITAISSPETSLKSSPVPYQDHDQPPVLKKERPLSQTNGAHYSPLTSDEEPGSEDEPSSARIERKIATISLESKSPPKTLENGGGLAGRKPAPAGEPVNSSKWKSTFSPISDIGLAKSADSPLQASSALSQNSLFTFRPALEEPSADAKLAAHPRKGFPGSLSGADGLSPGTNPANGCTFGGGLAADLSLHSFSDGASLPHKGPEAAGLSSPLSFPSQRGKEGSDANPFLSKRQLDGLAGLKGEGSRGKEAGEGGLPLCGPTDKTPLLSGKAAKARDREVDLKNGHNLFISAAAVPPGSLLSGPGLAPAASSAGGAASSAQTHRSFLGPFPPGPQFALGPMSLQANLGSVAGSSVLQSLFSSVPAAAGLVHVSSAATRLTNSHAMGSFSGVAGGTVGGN
measured-quantity: IC50 (µM)
Give bare numbers, in µM.

Entry `Cc1cc(C)c(CNC(=O)c2cc(Cl)c3c(c2C)O[C@@](C)([C@H]2CC[C@H](N(C)C)CC2)O3)c(=O)[nH]1` : reported IC50 = ?
100

====

test-target: Histone-lysine N-methyltransferase NSD2 (Homo sapiens)
Sequence (O96028 whole entry): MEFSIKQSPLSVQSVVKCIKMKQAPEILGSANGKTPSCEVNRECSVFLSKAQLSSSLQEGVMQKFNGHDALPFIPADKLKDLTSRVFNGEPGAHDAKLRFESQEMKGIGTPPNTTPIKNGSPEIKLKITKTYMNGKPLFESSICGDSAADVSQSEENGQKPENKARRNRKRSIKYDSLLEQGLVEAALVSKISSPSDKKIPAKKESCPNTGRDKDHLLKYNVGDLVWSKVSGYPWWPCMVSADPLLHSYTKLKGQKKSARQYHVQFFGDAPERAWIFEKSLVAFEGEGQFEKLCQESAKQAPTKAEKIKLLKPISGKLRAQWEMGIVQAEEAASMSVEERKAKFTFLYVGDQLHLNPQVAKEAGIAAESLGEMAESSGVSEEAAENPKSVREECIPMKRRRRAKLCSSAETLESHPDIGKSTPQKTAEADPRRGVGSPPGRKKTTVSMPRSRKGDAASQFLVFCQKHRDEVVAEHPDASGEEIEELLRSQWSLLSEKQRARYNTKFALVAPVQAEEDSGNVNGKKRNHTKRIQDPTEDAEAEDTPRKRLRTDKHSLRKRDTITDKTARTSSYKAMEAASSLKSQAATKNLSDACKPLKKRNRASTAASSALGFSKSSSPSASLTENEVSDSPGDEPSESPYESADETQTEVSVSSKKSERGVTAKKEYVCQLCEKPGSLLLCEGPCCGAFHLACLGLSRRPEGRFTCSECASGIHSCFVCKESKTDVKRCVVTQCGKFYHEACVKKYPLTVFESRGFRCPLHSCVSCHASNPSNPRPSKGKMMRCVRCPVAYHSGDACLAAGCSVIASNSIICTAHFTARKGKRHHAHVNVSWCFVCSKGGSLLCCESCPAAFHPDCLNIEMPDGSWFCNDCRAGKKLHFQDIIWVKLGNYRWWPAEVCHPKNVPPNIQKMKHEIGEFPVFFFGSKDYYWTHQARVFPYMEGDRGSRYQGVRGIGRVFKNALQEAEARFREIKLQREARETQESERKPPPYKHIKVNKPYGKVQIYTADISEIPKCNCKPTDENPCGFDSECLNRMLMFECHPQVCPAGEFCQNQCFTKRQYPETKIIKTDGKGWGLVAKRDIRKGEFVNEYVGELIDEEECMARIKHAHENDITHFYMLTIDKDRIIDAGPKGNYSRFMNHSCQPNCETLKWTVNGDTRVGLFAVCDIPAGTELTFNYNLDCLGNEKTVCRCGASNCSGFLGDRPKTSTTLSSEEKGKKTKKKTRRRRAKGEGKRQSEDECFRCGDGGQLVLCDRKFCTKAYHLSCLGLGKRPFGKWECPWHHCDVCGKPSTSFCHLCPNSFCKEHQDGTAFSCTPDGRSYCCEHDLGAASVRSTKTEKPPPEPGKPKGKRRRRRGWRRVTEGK
measured-quantity: pIC50
One number for each entry, as −log10 of the molar value.

Request: pIC50, test system Histone-lysine N-methyltransferase NSD2 (Homo sapiens), entry `Cc1cc(C)c(CNC(=O)c2cc(Cl)c3c(c2C)O[C@@](C)([C@H]2CC[C@H](N(C)C)CC2)O3)c(=O)[nH]1`
4.00

====

test-target: Histone-lysine N-methyltransferase EHMT1 (Homo sapiens, UniProt Q9H9B1)
Sequence (Q9H9B1 whole entry): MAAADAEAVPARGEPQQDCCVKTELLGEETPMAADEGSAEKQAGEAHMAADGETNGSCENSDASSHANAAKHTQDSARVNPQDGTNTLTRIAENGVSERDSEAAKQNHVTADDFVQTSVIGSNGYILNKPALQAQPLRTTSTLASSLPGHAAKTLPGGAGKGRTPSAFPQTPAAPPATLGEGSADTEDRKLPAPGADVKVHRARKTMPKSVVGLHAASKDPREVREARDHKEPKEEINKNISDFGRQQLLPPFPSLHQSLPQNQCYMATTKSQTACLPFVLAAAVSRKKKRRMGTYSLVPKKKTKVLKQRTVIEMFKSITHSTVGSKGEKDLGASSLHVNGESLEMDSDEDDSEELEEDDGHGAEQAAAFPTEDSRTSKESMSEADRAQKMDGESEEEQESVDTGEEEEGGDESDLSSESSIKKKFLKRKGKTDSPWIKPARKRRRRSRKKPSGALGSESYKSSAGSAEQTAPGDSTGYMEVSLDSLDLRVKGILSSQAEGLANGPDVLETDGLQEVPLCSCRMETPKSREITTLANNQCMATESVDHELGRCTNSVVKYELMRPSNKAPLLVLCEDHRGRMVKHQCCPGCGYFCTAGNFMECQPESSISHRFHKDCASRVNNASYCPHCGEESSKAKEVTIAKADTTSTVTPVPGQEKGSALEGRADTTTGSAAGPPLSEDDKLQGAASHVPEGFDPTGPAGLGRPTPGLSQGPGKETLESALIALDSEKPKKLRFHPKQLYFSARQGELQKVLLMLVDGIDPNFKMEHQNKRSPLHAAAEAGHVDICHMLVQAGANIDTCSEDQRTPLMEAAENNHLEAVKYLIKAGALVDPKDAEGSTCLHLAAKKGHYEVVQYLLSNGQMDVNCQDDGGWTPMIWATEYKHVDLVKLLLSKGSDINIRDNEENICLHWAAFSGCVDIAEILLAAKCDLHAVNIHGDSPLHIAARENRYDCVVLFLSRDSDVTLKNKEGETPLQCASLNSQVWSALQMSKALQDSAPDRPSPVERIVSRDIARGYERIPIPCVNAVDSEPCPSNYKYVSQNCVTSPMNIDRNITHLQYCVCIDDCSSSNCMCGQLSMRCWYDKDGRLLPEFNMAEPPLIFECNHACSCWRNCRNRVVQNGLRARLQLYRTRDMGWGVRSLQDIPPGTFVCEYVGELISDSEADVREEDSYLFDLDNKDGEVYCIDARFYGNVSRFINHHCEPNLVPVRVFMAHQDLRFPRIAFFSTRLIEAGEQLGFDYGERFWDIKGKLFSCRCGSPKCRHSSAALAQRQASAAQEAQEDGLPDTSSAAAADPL
measured-quantity: pIC50
Give bare numbers, as −log10 of the molar value.

Entry Cc1cc(C)c(CNC(=O)c2cc(Cl)c3c(c2C)O[C@@](C)([C@H]2CC[C@H](N(C)C)CC2)O3)c(=O)[nH]1 [VALEMETOSTAT] : reported pIC50 = ?
4.00
